As shown below, each of these molecules has a reported pIC50 value.
Species: Cavia porcellus
Experiment: Percent decrease in tonic contractile response in guinea pig ileal longitudinal smooth muscle.
Type: functional
Settings: Muscle tissue
pIC50: −log10 of the molar value.
measurement kind: pIC50

>>> print(df.to_string())
                                    molecule  measurement_kind  sign_qualifier  quantitative_result
 0  CCO/C(O)=C1/C(C)=NC(C)=C([N+](=O)[O-])C1c1cccc(C)n1 (stereo not drawn)             pIC50               =                 4.76
 1  CO/C(O)=C1/C(C)=NC(C)=C([N+](=O)[O-])C1c1cccc(C)n1 (stereo not drawn)             pIC50               =                 5.64
 2  CC1=NC(C)=C([N+](=O)[O-])C(c2cccc([N+](=O)[O-])n2)/C1=C(/O)OCCc1ccccc1 (stereo not drawn)             pIC50               =                 5.32
 3  CC1=NC(C)=C([N+](=O)[O-])C(c2ncccc2C)/C1=C(/O)OCCc1ccccc1 (stereo not drawn)             pIC50               =                 5.27
 4  CC1=NC(C)=C([N+](=O)[O-])C(c2ncccc2[N+](=O)[O-])/C1=C(/O)OCCc1ccccc1 (stereo not drawn)             pIC50               =                 4.11
 5  CC1=NC(C)=C([N+](=O)[O-])C(c2cccc(C)n2)/C1=C(/O)OC(C)C (stereo not drawn)             pIC50               =                 4.60
 6  CC1=NC(C)=C([N+](=O)[O-])C(c2ccccn2)/C1=C(/O)OCCc1ccccc1 (stereo not drawn)             pIC50               =                 6.19
 7  CC1=NC(C)=C([N+](=O)[O-])C(c2cccc(C)n2)/C1=C(/O)OCCc1ccccc1 (stereo not drawn)             pIC50               =                 5.00
 8  CC1=NC(C)=C([N+](=O)[O-])C(c2ncccc2C(F)(F)F)/C1=C(/O)OCCc1ccccc1 (stereo not drawn)             pIC50               <                 4.22
 9  CC1=NC(C)=C([N+](=O)[O-])C(c2cccc(C(F)(F)F)n2)/C1=C(/O)OCCc1ccccc1 (stereo not drawn)             pIC50               =                 5.85
10  CC1=NC(C)=C([N+](=O)[O-])C(c2cccc(Cl)n2)/C1=C(/O)OCCc1ccccc1 (stereo not drawn)             pIC50               =                 5.82
11  CC1=NC(C)=C([N+](=O)[O-])C(c2cccc(-c3ccccc3)n2)/C1=C(/O)OCCc1ccccc1 (stereo not drawn)             pIC50               =                 5.08
12  CC1=NC(C)=C([N+](=O)[O-])C(c2ncccc2Cl)/C1=C(/O)OCCc1ccccc1 (stereo not drawn)             pIC50               =                 5.29
13  COC(=O)C1=C(C)NC(C)=C(C(=O)OC)C1c1ccccc1[N+](=O)[O-] [NIFEDIPINE]             pIC50               =                 7.85
14  CC1=NC(C)=C([N+](=O)[O-])C(c2ncccc2[N+](=O)[O-])/C1=C(/O)OC(C)C (stereo not drawn)             pIC50               =                 5.42
15  CC1=NC(C)=C([N+](=O)[O-])C(c2ncccc2C)/C1=C(/O)OC(C)C (stereo not drawn)             pIC50               =                 5.55
16  CC1=NC(C)=C([N+](=O)[O-])C(c2ncccc2-c2ccccc2)/C1=C(/O)OCCc1ccccc1 (stereo not drawn)             pIC50               =                 5.47
17  CC1=NC(C)=C([N+](=O)[O-])C(c2cccc(Cl)n2)/C1=C(/O)OC(C)C (stereo not drawn)             pIC50               =                 4.78
